- Read-out: Forkhead box O1 (FOXO1), FOXO1 (gene 2308)
- assay.name: LTEA_HepaRG_FOXO1: Life Technologies and Expression Analysis (LTEA) Assay for Forkhead box O1 (FOXO1) using HepaRG (AID 2283456)
- condition: mRNA level, 48 h; actives raise or lower the signal
Calls of active or inactive are those of the source. The calls were made as follows: active = hit-call score of the fitted dose curve at least 0.9, where 1 is the maximum; inactive = score below 0.9.
Can you answer with just one of these options? label 1 = active, label 0 = inactive

[[record]]
mol_smiles = "Cc1ccc(N)cc1O"
category = "label 0"

[[record]]
mol_smiles = "CC(C)CCO"
category = "label 0"

[[record]]
mol_smiles = "CCOC(=O)CC(CC(=O)OCC)(OC(C)=O)C(=O)OCC"
category = "label 0"

[[record]]
mol_smiles = "Nc1cccc(N)c1"
category = "label 0"

[[record]]
mol_smiles = "O=C(O)c1cccc(Oc2ccccc2)c1"
category = "label 0"

[[record]]
mol_smiles = "COc1cccc(-c2ccc(/C=C\\CN3CCCCCC3)cc2Cl)c1"
category = "label 1"


Which outcome did this test record for the compound O=C(NS(=O)(=O)/C=C/c1ccccc1)c1ccc(F)cc1Cl ?
label 0

###

- Read-out: UDP glucuronosyltransferase (UGT1A1), UGT1A1 (gene 54658)
- assay.name: LTEA_HepaRG_UGT1A1: Life Technologies and Expression Analysis (LTEA) Assay for UDP glucuronosyltransferase (UGT1A1) using HepaRG (AID 2283538)
- condition: mRNA level, 48 h; actives raise or lower the signal
The source made the active and inactive calls. Rule for the calls: active = hit-call score of the fitted dose curve at least 0.9, where 1 is the maximum; inactive = score below 0.9.
Can you answer with just one of these options? active, inactive

Previously resolved entries follow.
[[record]]
mol_smiles = "Cc1ccc(S(=O)(=O)O)cc1C"
category = "inactive"

[[record]]
mol_smiles = "CC[C@H](C)C(=O)O[C@H]1C[C@@H](C)C=C2C=C[C@H](C)[C@H](CC[C@@H]3C[C@@H](O)CC(=O)O3)[C@H]21"
category = "active"


As a next step, examine the molecule that follows.
Which outcome did this test record for the molecule Cn1c(=O)cc(Oc2ccc(F)cc2F)c2cnc(NCC(C)(C)O)nc21 ?
inactive

###

- Read-out: Phosphatase and tensin (PTEN), PTEN (gene 5728)
- assay.name: LTEA_HepaRG_PTEN: Life Technologies and Expression Analysis (LTEA) Assay for Phosphatase and tensin (PTEN) using HepaRG (AID 2283523)
- condition: mRNA level, 48 h; actives raise or lower the signal
Activity calls are given as the source filed them. Rule for the calls: active = hit-call score of the fitted dose curve at least 0.9, where 1 is the maximum; inactive = score below 0.9.
Can you answer with just one of these options? y for active, n for inactive

[[record]]
compound = "O=C(CCCCCCCCc1cccnc1)N1CCC(C=C(c2ccccc2)c2ccccc2)CC1"
category = "n"


Which outcome did this test record for the compound CC[C@H]1CC[C@H](NCc2cc3c(cc2OC)[C@H]2C[C@H]2C(=O)N3C)[C@H](c2ccccc2)N1 ?
n

Check CCc1cc(SCc2sc(-c3ccc(C(F)(F)F)cc3)nc2CN2CCN(c3ccc(OC)cc3)CC2)ccc1OCC(=O)O too.
y

Check O=C1CCCCCN1 too.
n

Check Cc1ccc(O)cc1 too.
n

Check CCOC(=O)c1ccc(C2CCC(NC[C@H](O)COc3ccc(O)c(NS(C)(=O)=O)c3)CC2)cc1 (stereo partly specified) too.
n

Check CC(O)CN(CCN(CC(C)O)CC(C)O)CC(C)O (stereo unspecified) too.
n

Check COc1cccc(-c2ccc(/C=C\CN3CCCCCC3)cc2Cl)c1 too.
n

Check CC/C(=C\C(=N/O)C(N)=O)C(C)[N+](=O)[O-] (stereo unspecified) too.
n

Check CCNc1ccccc1 too.
n

Check CCOc1cccc(-n2cc(C(=O)N3CCN(c4cc(C(=O)O)c5ccccc5c4)CC3)nc2-c2ccc(C)cc2)c1 too.
y

###

- Read-out: urokinase plasminogen activator (uPA), PLAU (gene 5328)
- assay.name: BSK_KF3CT_uPA: BioMAP Diversity Plus: KF3CT Assay for urokinase plasminogen activator (uPA) Biomarker Activity (AID 2283075)
- condition: primary human keratinocytes with fibroblasts; actives raise or lower the signal
Activity calls are given as the source filed them. The calls were made as follows: active = hit-call score of the fitted dose curve at least 0.9, where 1 is the maximum; inactive = score below 0.9.
measured.quantity: AC50

Here's what some known entries look like.
[[record]]
compound = "Nc1cccc(N)c1"
measured = "inactive"

[[record]]
compound = "O=C(O)CC(O)C(=O)O (centres undefined)"
measured = "inactive"

[[record]]
compound = "O=P(OC(CCl)CCl)(OC(CCl)CCl)OC(CCl)CCl"
measured = "inactive"

[[record]]
compound = "COc1ccc(-n2nc(C(F)F)cc2-c2ccc(S(C)=O)cc2)cc1 (centres undefined)"
measured = "inactive"

[[record]]
compound = "CC[C@H](C)C(=O)O[C@H]1C[C@@H](C)C=C2C=C[C@H](C)[C@H](CC[C@@H]3C[C@@H](O)CC(=O)O3)[C@H]21"
measured = "32.5 µM (active)"


Given CC(C)CCCCCCOC(=O)c1ccc(C(=O)OCCCCCCC(C)C)c(C(=O)OCCCCCCC(C)C)c1 , state its recorded AC50.
inactive

Check Cc1ccc(S(=O)(=O)O)cc1C too.
inactive

Check C=CCCCCCCCCC(=O)O too.
inactive

Check CCOC(=O)c1ccc(C2CCC(NC[C@H](O)COc3ccc(O)c(NS(C)(=O)=O)c3)CC2)cc1 (some centres undefined) too.
inactive

Check Cc1[nH]cnc1C[C@H]1CCc2c(C)c3ccccc3n2C1=O too.
inactive

Check CC(C)CC(C)(O)C#CC(C)(O)CC(C)C (centres undefined) too.
inactive

Check CCOCCO too.
inactive

Check CNS(=O)(=O)c1cc(C(=O)N2CCC(CCN3C4CCC3CC(n3c(C)nc5ccccc53)C4)(c3cccc(F)c3)CC2)c(Cl)cc1F (centres undefined) too.
inactive

Check Cn1c(=O)cc(Oc2ccc(F)cc2F)c2cnc(NCC(C)(C)O)nc21 too.
inactive

Check CC/C(=C\C(=N/O)C(N)=O)C(C)[N+](=O)[O-] (centres undefined) too.
inactive

Check CC(C)c1cccc(C(C)C)c1N1C(=O)c2ccc(O)cc2C1=O too.
36.7 µM (active)

Check COCCOc1cc2cc(C(=O)NC3CCN(C(C)C)CC3)n(CC(=O)Nc3ccc(Cl)cn3)c2cn1 too.
inactive

###

- assay.name: CCTE_Shafer_MEA_acute_burst_percentage_std: CCTE's Neural Acute Assay for Standard Deviation of Burst Percentage, Shafer Lab (AID 2284018);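 also: fitted in the negative direction so actives lower burst percentage SD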
The source made the active and inactive calls. How the source made its calls: active means hit-call score of the fitted dose curve at least 0.9, where 1 is the maximum; inactive means score below 0.9.
Can you answer with just one of these options? Yes = active, No = inactive

[[record]]
mol_smiles = "CCCCCCCCCCCCc1ccccc1"
category = "No"

[[record]]
mol_smiles = "CCCCCCc1ccc(O)cc1O"
category = "Yes"

[[record]]
mol_smiles = "CC[C@H]1CC[C@H](NCc2cc3c(cc2OC)[C@H]2C[C@H]2C(=O)N3C)[C@H](c2ccccc2)N1"
category = "No"

[[record]]
mol_smiles = "O=C(O)c1cc(N=Nc2ccc(S(=O)(=O)Nc3ccccn3)cc2)ccc1O"
category = "No"

[[record]]
mol_smiles = "COc1ccc2sc(C(=O)Nc3nnn[nH]3)c(OC(C)C)c2c1"
category = "No"

[[record]]
mol_smiles = "Cn1cnc([N+](=O)[O-])c1Sc1ncnc2nc[nH]c12"
category = "No"


Which outcome did this test record for the compound O=C(O)CCN(C1(C(=O)NO)CCCC1)S(=O)(=O)c1ccc(Oc2ccc(F)cc2)cc1 ?
No

###

- assay.name: APR_HepG2_P-H2AX_24hr: Apredica 24-hour HepG2 Assay for H2AX Phosphorylation (AID 2282920)
- condition: high-content imaging, actives raise or lower the signal
Active and inactive are the calls of the source. The calls were made as follows: active = hit-call score of the fitted dose curve at least 0.9, where 1 is the maximum; inactive = score below 0.9.
Can you answer with just one of these options? active, inactive

Which outcome did this test record for the compound COC(=O)c1c(Cl)c(Cl)c(C(=O)OC)c(Cl)c1Cl ?
inactive

Check CCOC(=O)CC(CC(=O)OCC)(OC(C)=O)C(=O)OCC too.
inactive

###

- assayed.system: human Beta-secretase (BACE), BACE1 (gene 23621) (UniProt P56817)
- Sequence (P56817 whole entry, looked up): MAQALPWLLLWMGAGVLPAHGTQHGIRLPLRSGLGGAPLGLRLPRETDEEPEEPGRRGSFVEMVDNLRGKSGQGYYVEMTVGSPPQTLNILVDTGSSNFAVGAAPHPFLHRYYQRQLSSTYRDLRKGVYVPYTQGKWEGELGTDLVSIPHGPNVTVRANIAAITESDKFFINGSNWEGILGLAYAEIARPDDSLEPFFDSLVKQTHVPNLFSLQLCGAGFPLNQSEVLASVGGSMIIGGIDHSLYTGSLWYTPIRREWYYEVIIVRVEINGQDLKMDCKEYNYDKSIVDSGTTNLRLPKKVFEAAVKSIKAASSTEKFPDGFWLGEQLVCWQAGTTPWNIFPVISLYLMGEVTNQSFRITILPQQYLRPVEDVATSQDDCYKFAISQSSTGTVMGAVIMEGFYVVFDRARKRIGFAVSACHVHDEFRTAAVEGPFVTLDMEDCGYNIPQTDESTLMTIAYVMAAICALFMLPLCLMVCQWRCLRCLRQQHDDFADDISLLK
- assay.name: NVS_ENZ_hBACE: NovaScreen (NVS) Enzymatic Assay for human Beta-secretase (BACE) (AID 2283140);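 also: hits are inhibitors that reduce fluorescent substrate signal versus DMSO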
Inconclusive results are not listed. Calls of active or inactive are those of the source. How the source made its calls: active means hit-call score of the fitted dose curve at least 0.9, where 1 is the maximum; inconclusive means response in the unintended direction; inactive means score below 0.9.
measured.quantity: AC50

[[record]]
mol_smiles = "Cc1c(-c2cccnc2)c2ccccc2n1CCCCC(=O)O"
assayed_system = "human Beta-secretase (BACE), BACE1 (gene 23621) (UniProt P56817)"
measured = "inactive"

[[record]]
mol_smiles = "O=C(OC[C@H]1O[C@@H](OC(=O)c2cc(O)c(O)c(OC(=O)c3cc(O)c(O)c(O)c3)c2)[C@H](OC(=O)c2cc(O)c(O)c(OC(=O)c3cc(O)c(O)c(O)c3)c2)[C@@H](OC(=O)c2cc(O)c(O)c(OC(=O)c3cc(O)c(O)c(O)c3)c2)[C@@H]1OC(=O)c1cc(O)c(O)c(OC(=O)c2cc(O)c(O)c(O)c2)c1)c1cc(O)c(O)c(OC(=O)c2cc(O)c(O)c(O)c2)c1"
assayed_system = "human Beta-secretase (BACE), BACE1 (gene 23621) (UniProt P56817)"
measured = "3.11 µM (active)"

[[record]]
mol_smiles = "CNCc1ccc(NC(=O)c2c[nH]c3c2C(=O)CCC3)cc1"
assayed_system = "human Beta-secretase (BACE), BACE1 (gene 23621) (UniProt P56817)"
measured = "inactive"

[[record]]
mol_smiles = "Nc1nc2ncc(CNc3ccc(C(=O)N[C@@H](CCC(=O)O)C(=O)O)cc3)nc2c(=O)[nH]1"
assayed_system = "human Beta-secretase (BACE), BACE1 (gene 23621) (UniProt P56817)"
measured = "inactive"


Given CCOc1cccc(-n2cc(C(=O)N3CCN(c4cc(C(=O)O)c5ccccc5c4)CC3)nc2-c2ccc(C)cc2)c1 , state its recorded AC50.
10.5 µM (active)
